Listing of recorded AC50 by entry.
study target: Human pyruvate kinase R (PKR) (Homo sapiens)
Construct: Human pyruvate kinase R (PKR), residues 14-574; 6x-His (N, cleaved yes); 8x-Arg (N, cleaved yes); SUMO (N, cleaved yes); host or cells: E. coli
assay protocol: Biochemical assay for activation of pyruvate kinase R (Kinase-Glo luminescence measurement of ATP generation)
particulars: PKR biochemical assay; 0.1 nM PKR, 0.3 mM ADP, 2 mM FBP, 0.1 mM PEP
The answer is to be given in nM; state only the numeric part.

Completed entries (count: 4):
COC(=O)c1cc(-n2ncnc2CNC(=O)NCc2nc(C)nn2-c2ccc(Cl)c(F)c2)ccc1Cl [Compound 50]    32
Cc1nc(CNC(=O)NCc2ncnn2-c2cc(F)c3cccnc3c2)n(-c2ccc(Cl)c(F)c2)n1 [Compound 47]    42
O=C(NCc1ncnn1-c1ccc(Cl)nc1)NCc1ncnn1-c1ccc(Cl)nc1 [Compound 116]    89
O=C(NCC1=NC2(CC2)C(=O)N1Cc1ccc(F)cc1)NCc1ncnn1-c1ccc2cccnc2c1 [Compound 110]    61

We now examine a further compound.
# AC50 of Cc1nc(CNC(=O)NCc2ncnn2CC2CCOCC2)n(-c2ccc(Cl)c(F)c2)n1 [Compound 10] = 80

---

study target: Human pyruvate kinase R (PKR) (Homo sapiens, UniProt P30613)
Construct: Human pyruvate kinase R (PKR), residues 14-574; 6x-His (N, cleaved yes); 8x-Arg (N, cleaved yes); SUMO (N, cleaved yes); host or cells: E. coli
Sequence (P30613 14-574): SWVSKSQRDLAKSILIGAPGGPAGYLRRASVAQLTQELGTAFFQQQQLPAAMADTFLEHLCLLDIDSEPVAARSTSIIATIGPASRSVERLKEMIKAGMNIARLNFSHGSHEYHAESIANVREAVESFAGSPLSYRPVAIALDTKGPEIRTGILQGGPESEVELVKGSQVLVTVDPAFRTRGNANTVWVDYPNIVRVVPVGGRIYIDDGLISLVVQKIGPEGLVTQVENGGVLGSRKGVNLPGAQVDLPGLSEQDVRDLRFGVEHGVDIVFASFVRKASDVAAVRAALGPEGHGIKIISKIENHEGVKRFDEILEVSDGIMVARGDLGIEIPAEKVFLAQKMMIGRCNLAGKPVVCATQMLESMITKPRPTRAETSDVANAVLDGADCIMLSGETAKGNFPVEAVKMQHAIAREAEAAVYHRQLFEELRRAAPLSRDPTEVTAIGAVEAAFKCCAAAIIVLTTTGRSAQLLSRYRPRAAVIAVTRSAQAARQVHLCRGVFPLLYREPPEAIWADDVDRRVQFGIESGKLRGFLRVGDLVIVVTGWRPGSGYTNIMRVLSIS
assay protocol: Biochemical assay for activation of pyruvate kinase R (Kinase-Glo luminescence measurement of ATP generation)
particulars: PKR biochemical assay; 0.1 nM PKR, 0.3 mM ADP, 2 mM FBP, 0.1 mM PEP
recorded endpoint: AC50 (µM)
The answer is to be given in µM; state only the numeric part.

Completed entries (count: 6):
CCN(Cc1ncnn1-c1cnc2ccccc2c1)C(=O)NCc1nc(C)nn1-c1ccc(Cl)c(F)c1    0.25
CCN(Cc1ncnn1-c1ccc(OC)nc1)C(=O)NCc1ncnn1-c1ccc(Cl)c(F)c1    0.19
O=C1N(Cc2nnnn2-c2ccc(Cl)cc2)CCCN1Cc1nnnn1-c1ccc(Cl)cc1    6
Cc1nc(CNC(=O)NCc2ncnn2-c2ccc3cc(F)cnc3c2)n(-c2ccc(Cl)c(F)c2)n1    0.083
O=C(NCc1ncnn1-c1ccc2ncccc2c1)NCc1ncnn1-c1ccc2ncccc2c1    0.93
CCc1nc(CNC(=O)NCc2ncnn2-c2ccc(Cl)c(F)c2)n(-c2ccc3cccnc3c2)n1    0.052

# AC50 of Cc1cncc(-n2ncnc2CNC(=O)NCc2nc(C)nn2-c2ccc(Cl)c(F)c2)c1 = 0.18

# AC50 of Cc1nc(CNC(=O)NCc2ncnn2-c2cc(C)c3cncnc3c2)n(-c2ccc(Cl)c(F)c2)n1 = 0.88

# AC50 of Cc1nc(CNC(=O)NCc2ncnn2CC2CCOC(C)(C)C2)n(-c2ccc(Cl)c(F)c2)n1 (centres unmarked) = 1.4

---

study target: Human pyruvate kinase R (PKR) (Homo sapiens)
Construct: Human pyruvate kinase R (PKR), residues 14-574; 6x-His (N, cleaved yes); 8x-Arg (N, cleaved yes); SUMO (N, cleaved yes); host or cells: E. coli
assay protocol: Biochemical assay for activation of pyruvate kinase R (Kinase-Glo luminescence measurement of ATP generation)
particulars: maximal activation level relative to the activation level achieved by the literature compound AG-348 @ 10 μM
Classes are defined on Emax with ranges class A: < 70%; class B: ≥ 70% and < 80%; class C: ≥ 80%

Cc1nc(CNC(=O)NCc2ncnn2-c2cc(F)c3nccnc3c2)n(-c2ccc(Cl)c(F)c2)n1    class B

Quick check: band for Cc1nc(CNC(=O)NCc2ncnn2-c2cnc3cc(F)ccc3c2)n(-c2ccc(Cl)c(F)c2)n1 class C

Quick check: band for COC(=O)c1cc(-n2ncnc2CNC(=O)NCc2nc(C)nn2-c2ccc(Cl)c(F)c2)ccc1Cl class A

Quick check: band for Cc1nc(CNC(=O)NCc2nc(C)nn2-c2ccc(Cl)c(F)c2)n(-c2ccc(Cl)c(F)c2)n1 class C

Quick check: band for O=C(NCc1ncnn1-c1ccc(Cl)nc1)NCc1ncnn1-c1ccc(Cl)nc1 class A

---

Listing of recorded AC50 by entry.
study target: Human pyruvate kinase R (PKR) (Homo sapiens, UniProt P30613)
Construct: Human pyruvate kinase R (PKR), residues 14-574; 6x-His (N, cleaved yes); 8x-Arg (N, cleaved yes); SUMO (N, cleaved yes); host or cells: E. coli
assay protocol: Biochemical assay for activation of pyruvate kinase R (Kinase-Glo luminescence measurement of ATP generation)
particulars: PKR biochemical assay; 0.1 nM PKR, 0.3 mM ADP, 2 mM FBP, 0.1 mM PEP
The answer is to be given in nM; state only the numeric part.

Cc1nc(CNC(=O)NCc2ncnn2-c2ccc(Cl)c(F)c2)n(-c2ccc3cccnc3c2)n1    36
Cc1nc(CNC(=O)NCc2ncnn2-c2ccc(Cl)c(F)c2)n(-c2cnc3ccccc3c2)n1    27
CN(Cc1nnnn1-c1ccc(Cl)c(F)c1)C(=O)NCc1ncnn1-c1ccc(Cl)c(F)c1    210
Cc1nc(CNC(=O)NCc2ncnn2Cc2ccccc2)n(-c2ccc(Cl)c(F)c2)n1    37
CC1(Cn2ncnc2CNC(=O)NCc2ncnn2-c2ccc(Cl)c(F)c2)CCOCC1    88

# AC50 of COc1cncc(-n2ncnc2CNC(=O)NCc2nc(C)nn2-c2ccc(Cl)c(F)c2)c1 = 170

# AC50 of CCN(Cc1ncnn1CC1CCOCC1)C(=O)NCc1ncnn1-c1ccc(Cl)c(F)c1 = 120

# AC50 of O=C(NCc1ncnn1-c1ccc(Cl)c(F)c1)NCc1nc(C2CC2)nn1-c1ccc2cccnc2c1 = 49

# AC50 of Cc1nc(CNC(=O)NCc2nc(CO)nn2-c2ccc(Cl)c(F)c2)n(-c2ccc3cccnc3c2)n1 = 150

# AC50 of O=C(NCc1ncnn1-c1cc(F)cc(Cl)c1)NCc1ncnn1-c1cc(F)cc(Cl)c1 = 3100

# AC50 of CNCc1cc(-n2nc(C)nc2CNC(=O)NCc2nc(C)nn2-c2ccc(Cl)c(F)c2)ccc1Cl = 69

# AC50 of Cc1ccc(-n2ncnc2CNC(=O)NCc2ncnn2-c2ccc(C)c(C)c2)cc1C = 64

# AC50 of Cc1nc(CNC(=O)NCc2ncnn2-c2cccnc2)n(-c2ccc(Cl)c(F)c2)n1 = 430

# AC50 of Cn1ncc2cc(-n3ncnc3CNC(=O)NCc3ncnn3-c3ccc(Cl)c(F)c3)ccc21 = 24

---

study target: Human pyruvate kinase R (PKR) (Homo sapiens, UniProt P30613)
Construct: Human pyruvate kinase R (PKR), residues 14-574; 6x-His (N, cleaved yes); 8x-Arg (N, cleaved yes); SUMO (N, cleaved yes); host or cells: E. coli
assay protocol: Biochemical assay for activation of pyruvate kinase R (Kinase-Glo luminescence measurement of ATP generation)
particulars: maximal activation level relative to the activation level achieved by the literature compound AG-348 @ 10 μM
recorded endpoint: Emax (%)
The answer is to be given in %; state only the numeric part.

Completed entries (count: 3):
O=C(NCc1nnnn1-c1ccc(Cl)cc1F)NCc1nnnn1-c1ccc(Cl)cc1F    80
CNCc1cc(-n2nc(C)nc2CNC(=O)NCc2nc(C)nn2-c2ccc(Cl)c(F)c2)ccc1Cl    69
CCc1nc(CNC(=O)NCc2ncnn2-c2ccc3nccnc3c2)n(-c2ccc(Cl)c(F)c2)n1    79

We now examine a further compound.
# Emax of Cc1nc(CNC(=O)NCc2ncnn2-c2cc3ccccc3cn2)n(-c2ccc(Cl)c(F)c2)n1 = 81
